Kindly supply the reported IC50 values for the records listed here.
biological target: CDK2/CycE (Homo sapiens); experiment: CDK2/CycE kinase assay (TR-FRET, 2 mM ATP); conditions: 2 mM ATP (high ATP); median; read-out: CDK2/CyclinE, 2 mM ATP (high ATP), IC50 (median)

Looking up O=C1CN(c2nc(NCc3nc4ccccc4[nH]3)n3ncc(Br)c3n2)CCN1 [Example 167] , I see its IC50 listed as 15.9 µM

Looking up CN1CCN(c2nc(NCc3nc4ccccc4[nH]3)n3ncc(C(F)(F)F)c3n2)CC1 [Example 297] , I see its IC50 listed as 13.3 µM

Looking up Fc1cccc2[nH]c(CNc3nc(N4CCN5CCC4CC5)nc4c(C(F)(F)F)cnn34)nc12 [Example 410] , I see its IC50 listed as 10 µM

Looking up Cc1ccc2[nH]c(CNc3nc(N4C[C@@H]5CCCN[C@@H]5C4)nc4c(C5CC5)cnn34)nc2c1 [Example 195] , I see its IC50 listed as > 20 µM

Looking up CC(C)COc1nc(NCc2nc3ccccc3[nH]2)n2ncc(Br)c2n1 [Example 409] , I see its IC50 listed as 12.8 µM

Looking up Fc1ccc(-c2cnc(CNc3nc(N4CCOCC4)nc4c(Br)cnn34)[nH]2)cc1 [Example 66] , I see its IC50 listed as 2.3 µM

Looking up CN(CC(C)(C)O)c1nc(NCc2nc3cc(C(F)(F)F)ccc3[nH]2)n2ncc(Br)c2n1 [Example 345] , I see its IC50 listed as 6.07 µM

Looking up CC(C)CNc1nc(NCc2nc3ccccc3[nH]2)n2ncc(Br)c2n1 [Example 285] , I see its IC50 listed as 2.55 µM

====

system: CAL-120, human breast adenocarcinoma cells; experiment: Proliferation assay CAL-120 (crystal violet, 4 days); assay type: cell-based; details: Homo sapiens, CAL-120, 96 h, CAL-120 cells, median, read-out: Prolif-CAL-120, IC50-[mol/l] (median)
Kindly supply the reported IC50 values for the records listed here.
State the result as a value with its unit after it.

Reported IC50 (CAL-120, human breast adenocarcinoma cells) for entry Fc1ccc2[nH]c(CNc3nc(N4CCOCC4)nc4c(C5CC5(F)F)cnn34)nc2c1 (racemic) [Example 286] is 20.8 nM

Reported IC50 (CAL-120, human breast adenocarcinoma cells) for entry Cc1ccnc2[nH]c(CNc3nc(N4CCOCC4)nc4c(Br)cnn34)nc12 is 14.2 nM

Reported IC50 (CAL-120, human breast adenocarcinoma cells) for entry CN(CC(C)(C)O)c1nc(NCc2nc3cc(F)c(Cl)cc3[nH]2)n2ncc(Br)c2n1 is 1.93 nM

Reported IC50 (CAL-120, human breast adenocarcinoma cells) for entry Fc1ccc2[nH]c(CNc3nc(N4CCNCC4)nc4c(C5CC5)cnn34)nc2c1 is 6.68 nM

====

tested on: MDA-MB-231, human breast cancer cells; assay: Proliferation assay MDA-MB-231 (crystal violet, 4 days); assay type: cell-based; conditions: MDA-MB-231 cells, median, read-out: Prolif-MDA MB-231, IC50-[mol/l] (median)
Kindly supply the reported IC50 values for the records listed here.
Just the number please, in nM, no unit attached.

Looking up CC1CN(C)CCN1c1nc(NCc2nc3ccccc3[nH]2)n2ncc(Br)c2n1 (single isomer, unassigned; enantiomer 1) [Example 260] , I see its IC50 listed as 13.4

Looking up CC1CN(C)CCN1c1nc(NCc2nc3ccccc3[nH]2)n2ncc(Br)c2n1 (single isomer, unassigned; enantiomer 2) [Example 261] , I see its IC50 listed as 99.9

Looking up Brc1cnn2c(NCc3nc4ccccc4[nH]3)nc(N3C[C@H]4CC[C@@H]3CO4)nc12 (single isomer, unassigned; enantiomer 2) , I see its IC50 listed as 26.1

Looking up Brc1cnn2c(NCc3nc4ccccc4[nH]3)nc(N3C[C@H]4CC[C@@H]3CN4)nc12 (single isomer, unassigned) , I see its IC50 listed as 10.5

Source listed as patent US20230117034A1.
